Source of measurements: patent US20130137865A1

Molecular target: rat mGlu2 receptor (Rattus norvegicus)
Sequence (P31421 19-872): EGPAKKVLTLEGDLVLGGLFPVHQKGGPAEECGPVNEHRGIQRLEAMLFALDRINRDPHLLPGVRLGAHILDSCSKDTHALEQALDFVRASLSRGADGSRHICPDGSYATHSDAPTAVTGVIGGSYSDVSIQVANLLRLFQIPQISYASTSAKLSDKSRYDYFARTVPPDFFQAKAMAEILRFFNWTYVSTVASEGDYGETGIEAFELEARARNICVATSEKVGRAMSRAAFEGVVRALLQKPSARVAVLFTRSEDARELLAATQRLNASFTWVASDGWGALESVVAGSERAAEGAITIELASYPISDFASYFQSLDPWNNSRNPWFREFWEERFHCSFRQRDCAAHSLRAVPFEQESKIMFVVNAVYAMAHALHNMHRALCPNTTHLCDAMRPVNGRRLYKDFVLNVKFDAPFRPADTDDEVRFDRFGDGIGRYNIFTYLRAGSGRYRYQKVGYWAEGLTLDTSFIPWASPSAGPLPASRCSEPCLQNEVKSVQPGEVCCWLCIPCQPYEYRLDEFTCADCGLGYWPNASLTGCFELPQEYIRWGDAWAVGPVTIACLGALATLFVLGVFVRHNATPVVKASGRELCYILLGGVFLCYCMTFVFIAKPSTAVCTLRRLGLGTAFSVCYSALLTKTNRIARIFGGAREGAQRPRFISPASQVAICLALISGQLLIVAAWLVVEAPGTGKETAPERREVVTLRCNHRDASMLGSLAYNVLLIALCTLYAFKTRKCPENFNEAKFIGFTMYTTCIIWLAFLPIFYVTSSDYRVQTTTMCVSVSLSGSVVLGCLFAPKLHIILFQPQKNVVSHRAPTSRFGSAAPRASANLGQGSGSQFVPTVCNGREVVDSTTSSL
Assay: [35S]GTPγS binding test (1), membranes of CHO cells stably expressing rat mGlu2
Conditions: inhibition of glutamic acid (20 μM)-stimulated specific [35S]GTPγS binding
Hi there, I'd appreciate the recorded log10 IC50 for every entry that follows.
Please note: log10 values; quantity IC50; unit nM.

Quick note, log10 IC50 for Cn1ncc(-c2nc(-c3ccc(S(N)(=O)=O)cc3)no2)c1OCc1ccc(C(F)(F)F)cc1 [Example 56] landed at 1.65

Quick note, log10 IC50 for Cn1ncc(-n2cc(-c3ccc(S(N)(=O)=O)cc3)cn2)c1CCc1ccc(C(F)(F)F)cc1 [Example 6] landed at 1.77

Quick note, log10 IC50 for Cn1ncc(-c2nc(-c3cccc(S(N)(=O)=O)c3)no2)c1CCc1ccc(C(F)(F)F)cn1 [Example 8] landed at 1.99

Quick note, log10 IC50 for Cn1ncc(-c2nc(-c3cccc(S(N)(=O)=O)c3)no2)c1N1Cc2ccc(C(F)(F)F)cc2C1 [Example 21] landed at 1.17

Quick note, log10 IC50 for Cn1ncc(-c2nc(-c3ccc(S(=O)(=O)O)cc3)no2)c1CCc1ccc(C(F)(F)F)cc1 [Example 15] landed at 1.60

Quick note, log10 IC50 for Cn1ncc(-c2noc(-c3ccc(S(N)(=O)=O)cc3)n2)c1CCc1ccc(C(F)(F)F)cc1 [Example 3] landed at 0.56

Quick note, log10 IC50 for Cc1ccc(OCc2c(-c3nc(-c4cccc(S(N)(=O)=O)c4)no3)cnn2C)cc1 [Example 51] landed at 0.91

Quick note, log10 IC50 for Cn1ncc(-c2nc(-c3cccc(S(=O)(=O)O)c3)no2)c1COc1ccc(C(F)(F)F)cc1 [Example 134] landed at 1.40
